- Procedure summary: M. tuberculosis H37Rv growth inhibitors, H37Rv strain (AID 1626);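 note: bacteria incubated seven days before Alamar blue readout; 0% = bacteria only wells and 100% = bacteria with antibiotic wells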
- Condition context: hits give high values, concentration not given here
Screen size: about 220,000 compounds; about 2,000 (0.91%) were called active. Not shown: some 2% with an inconclusive outcome. Only a sample is shown. Measured potencies and affinities stand elsewhere.
Measured inhibition accompanies every entry in the list below.
Numeric answer only, unit % assumed.

Name the reported inhibition value associated with the compound "CCOC(=O)N1C2=NC(C(=O)OC)=C(C(=O)OC)[C@@H]3N(C)c4ccc(OC)cc4[C@]23C[C@H]1C(=O)OC" 5.46

Consider the compound shown here: "Cc1c(NC(=O)/C(=C\c2ccccc2)NC(=O)c2ccccc2)c(=O)n(-c2ccccc2)n1C" What is its recorded inhibition? -13.7

Can you look up the measured inhibition of Cc1cccc(C(=O)c2c(N)sc3c2CCC(C)C3)c1 (stereo unspecified) for me? 5.18

For the compound "COc1cc(SC)ccc1C(=O)Nc1ccc(C)cc1C" , what inhibition is on record? 2.28

Reported inhibition, compound "Clc1ccc(-c2csc(N/N=C/c3ccc4c(c3)OCO4)n2)cc1" : ____ 48.7

Param item = "COc1ccc2nc(NC(=O)CSc3nnnn3C3CCCCC3)sc2c1" ; retrieve measured inhibition. 0.53

Consider the compound shown here: COC(=O)c1c(NC(=O)CC2SC(N)=NC2=O)sc2c1CCC(C)C2 (stereo unspecified) What is its recorded inhibition? 10.2

What measured inhibition goes with "O=C(CSCc1ccco1)c1cccs1" ? -1.66

Quick one: inhibition of "COc1ccc(NC(=O)COc2ncnc3ccccc23)cc1S(=O)(=O)N1CCOCC1" ? -8.54

Sample "O=C(NCCc1ccccc1)C1CCN(Cc2ccccc2F)CC1" — what was its inhibition? 0.69

Any idea what its inhibition is? The compound is "CN(/N=C/c1ccc([N+](=O)[O-])o1)c1ccccc1" 1.22

Sample "Nn1c(SCC(=O)N2CCOCC2)nnc1C1CC1" — what was its inhibition? -3.01

Can you look up the measured inhibition of "O=C(O)C1(P(=O)(c2ccc(Cl)cc2)c2ccc(Cl)cc2)CC1" for me? 1.34

====

- Procedure summary: M. tuberculosis H37Rv growth inhibitors, H37Rv strain (AID 1626)
- Condition context: hits give high values, concentration not given here
The campaign covered roughly 220,000 compounds. About 2,000 (0.91%) were called active. Not shown: some 2% with an inconclusive outcome. These entries were drawn from the full list. Entries with a potency or affinity are not part of this list.
Observed property: inhibition (%)
I only need the number, in %, no unit after it.

// known answers, use as guide
[
  {
    "Compound": "Cn1c(SCC(=O)N2CCCc3ccccc32)nnc1-c1cccs1",
    "Measure unit": "%",
    "inhibition": 11.9
  },
  {
    "Compound": "CCOc1ccccc1-c1n[nH]c(=S)o1",
    "Measure unit": "%",
    "inhibition": 6.98
  },
  {
    "Compound": "N#C/C(=C\\c1cn[nH]c1-c1ccc(Cl)cc1)C(=O)NC1CC1",
    "Measure unit": "%",
    "inhibition": 9.87
  },
  {
    "Compound": "COC(=O)c1ccc(N=c2sc(C(=O)OC)cc(=O)n2C)cc1",
    "Measure unit": "%",
    "inhibition": 7.67
  },
  {
    "Compound": "CCCCn1c(O)c(C(CC)=Nc2ccc3c(c2)CCC3)c(=O)[nH]c1=O",
    "Measure unit": "%",
    "inhibition": 74.9
  },
  {
    "Compound": "Cc1cc(N2CCCC2)nc(N2C3CCC2CC(O)(c2ccc(F)cc2)C3)n1 (stereo not drawn)",
    "Measure unit": "%",
    "inhibition": 0.78
  }
]

What value of measured inhibition is listed for "COc1ccc(-c2noc(CSc3nnc(CCc4ccccc4)n3-c3ccccc3)n2)cc1OC" ? 6.96

Which inhibition is reported for this compound? CCOc1ccc(C2c3c(oc4cc(C)c(C)cc4c3=O)C(=O)N2CCCN2CCOCC2)cc1 (stereo not drawn) -8.64

Endpoint output: inhibition of "Cc1nc(-c2ccc(Cl)cc2)sc1C(=O)NNC(=O)C(C)C" . Value? -5

====

Below, each of the compounds is paired with its reported inhibition value.
- Procedure summary: M. tuberculosis H37Rv growth inhibitors, H37Rv strain (AID 1626);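 note: bacteria incubated seven days before Alamar blue readout; 0% = bacteria only wells and 100% = bacteria with antibiotic wells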
- Condition context: hits give high values, concentration not given here
Among all 220,000 compounds or so, about 2,000 (0.91%) were called active. Not shown: some 2% with an inconclusive outcome. Only a sample is shown. Results with a measured potency or affinity are listed apart.
Could you give me the number in %? Just the number is fine.

Worked cases, answers included:
[
  {
    "Compound": "CCC(=O)Nc1nnc(SCc2ccc(F)cc2)s1",
    "Observed property": "inhibition",
    "Endpoint value": 7.4
  },
  {
    "Compound": "CCCn1c(=N)c(C(=O)NCC2CCCO2)cc2c(=O)n3cccc(C)c3nc21 (stereo unspecified)",
    "Observed property": "inhibition",
    "Endpoint value": -1.86
  },
  {
    "Compound": "CC1C=CCC2C(=O)N(c3ccc(Cl)cc3O)C(=O)C12 (stereo unspecified)",
    "Observed property": "inhibition",
    "Endpoint value": 10.7
  }
]

I would be grateful if you could share the reported inhibition for "N/C(Cc1ccccc1Sc1ccccc1)=N\O" . -3.65

I would be grateful if you could share the reported inhibition for "N=c1c(C(=O)NCc2ccco2)cc2c(=O)n3ccccc3nc2n1CCc1ccccc1" . -6.57

====

Entries and their inhibition
- Procedure summary: M. tuberculosis H37Rv growth inhibitors, H37Rv strain (AID 1626);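 note: bacteria incubated seven days before Alamar blue readout; 0% = bacteria only wells and 100% = bacteria with antibiotic wells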
- Condition context: hits give high values, concentration not given here
In all, about 220,000 compounds went through this assay and about 2,000 (0.91%) were called active. About 2% were inconclusive and are not listed. Only a sample is shown. Results with a measured potency or affinity are listed apart.
Please state the figure in %; there is no need to write the unit.

Past entries and their recorded results:
[
  {
    "Compound": "COc1ccc(Cl)cc1S(=O)(=O)Oc1ccc(NC(C)=O)cc1",
    "Measure unit": "%",
    "inhibition": -3.14
  },
  {
    "Compound": "O=C1c2ccccc2C(=O)N1CCCCN(C(=O)c1cccc([N+](=O)[O-])c1)c1ccc(Cl)cc1",
    "Measure unit": "%",
    "inhibition": -4.65
  },
  {
    "Compound": "COC(=O)c1ccccc1NC(=O)C1CCCN(S(=O)(=O)c2ccc(OC)cc2)C1 (stereo not given)",
    "Measure unit": "%",
    "inhibition": 5.41
  },
  {
    "Compound": "Brc1ccccc1-n1nnc(-c2ccnc3ccccc23)n1",
    "Measure unit": "%",
    "inhibition": -5.72
  }
]

Entry CCOC(=O)C(C(=O)OCC)C(Nc1ccccc1)c1ccccc1 (stereo not given) has what inhibition? 1.08

====

We begin with a simple list: items and their reported inhibition.
- Procedure summary: M. tuberculosis H37Rv growth inhibitors, H37Rv strain (AID 1626);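 note: bacteria incubated seven days before Alamar blue readout; 0% = bacteria only wells and 100% = bacteria with antibiotic wells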
- Condition context: hits give high values, concentration not given here
Among all 220,000 compounds or so, about 2,000 (0.91%) were called active. Roughly 2% stayed inconclusive and do not appear here. The list is a sample of the results. Entries with a potency or affinity are not part of this list.
Could you give me the number in %? Just the number is fine.

[
  {
    "Compound": "CCC(=NCCO)c1c(O)n(C2CCCCC2)c(=O)[nH]c1=O",
    "inhibition (%)": 3.46
  },
  {
    "Compound": "Cn1c(=O)c2c(nc(CN3CCOCC3)n2CC(=O)c2ccccc2)n(C)c1=O",
    "inhibition (%)": -10.9
  },
  {
    "Compound": "COc1cccc(C(C(=O)NC2CCCC2)N(Cc2ccccc2OC)C(=O)c2ccco2)c1 (stereo not given)",
    "inhibition (%)": 2.53
  },
  {
    "Compound": "O=C(Oc1ccc(-c2cnc3ccccc3n2)cc1)c1cccc([N+](=O)[O-])c1",
    "inhibition (%)": 24
  }
]

Looking for the measured inhibition of "O=C(OCC(=O)N1CCCc2ccccc21)c1ccc(Cl)nc1" , can you help? 60.1

Value lookup for inhibition; key = "COc1cccc(C(=O)Nc2nnc(Cc3ccc(OC)c(OC)c3)s2)c1" 4.42

Look up inhibition: C=CCN(C(=O)CNC(=O)c1ccco1)C(C(=O)NC1CCCCC1)c1ccccc1 (stereo not given) -3.02

What value of inhibition has been reported for the following compound? "Cc1sc2nc3n(c(=O)c2c1C)CCCS3" -3

Dear colleague, I am looking for the recorded inhibition of the following compound: "Cc1cc(C(=O)NNC(=O)CCCCC(=O)NNC(=O)c2cc(C)[nH]n2)n[nH]1" 1.69

Fill in the blank: the reported inhibition of "CCC(=O)N1CCN(c2c(Cl)cccc2[N+](=O)[O-])CC1" is ____. 4.63

Fill in the blank: the reported inhibition of "N#C/C(=C\c1sc(N2CCOCC2)nc1-c1ccccc1)C(=O)Nc1cccc2ccccc12" is ____. 49.2

The reported measurements were obtained from PubChem BioAssay AID1626.
